molecular target: Aurora2 (Aurora-A) (Homo sapiens, UniProt O14965); construct: Aurora-A: the full length recombinant protein including an N-terminal poly-histidine tail has been expressed in E. coli; poly-histidine (N); assay: Aurora 2 (Aurora A) kinase radioactivity scintillation assay using nickel chelate Flash plates; details: 10 nM Aurora-A, 500 nM NuMA substrate, 1 μM ATP with [33P] ATP, 10 mM MgCl2, 30 minutes, 37° C.
Sequence (O14965 whole entry): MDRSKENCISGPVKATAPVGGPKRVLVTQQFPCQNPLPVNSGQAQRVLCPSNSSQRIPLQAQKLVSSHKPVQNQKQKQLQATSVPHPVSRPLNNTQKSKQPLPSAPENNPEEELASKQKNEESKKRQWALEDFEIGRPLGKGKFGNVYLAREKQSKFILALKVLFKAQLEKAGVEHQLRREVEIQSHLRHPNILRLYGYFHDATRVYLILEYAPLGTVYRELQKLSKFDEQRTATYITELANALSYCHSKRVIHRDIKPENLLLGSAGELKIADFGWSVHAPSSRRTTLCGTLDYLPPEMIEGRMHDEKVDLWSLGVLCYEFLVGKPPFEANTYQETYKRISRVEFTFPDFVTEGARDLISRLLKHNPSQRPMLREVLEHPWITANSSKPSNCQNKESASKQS
pIC50: −log10 of the molar value. Counter-ions that a name gives are not always drawn.
Class 1: pIC50 at least 6. Class 0: pIC50 below 6.

Check the entry CCOC(=O)c1[nH]cc2c1NC1=C(C(=O)CN(C(=O)OC(C)(C)C)C1)C2c1ccc(Sc2nc3cc4c(cc3[nH]2)OC(F)(F)O4)o1 (stereo not drawn) [Example 140] : does pIC50 equal or exceed 6? 0

Check the entry Cn1c2c(c(=O)n(C)c1=O)C(c1cccc(Oc3ccc(Cl)cc3)c1)c1c[nH]nc1N2 (stereo not drawn) [Example 43] : does pIC50 equal or exceed 6? 0

Check the entry CCOC(=O)c1[nH]cc2c1NC1=C(C(=O)CNC1)C2c1ccc(Sc2nc3cc(OC(F)(F)F)ccc3[nH]2)o1 (stereo not drawn) [Example 151, hydrochloride] : does pIC50 equal or exceed 6? 1

Check the entry CCOC(=O)c1[nH]cc2c1NC1=C(C(=O)CN(C(=O)OC(C)(C)C)C1)C2c1ccc(Sc2nc3cc(OC(F)F)ccc3[nH]2)o1 (stereo not drawn) [Example 127] : does pIC50 equal or exceed 6? 1

Check the entry O=C1CNCC2=C1C(c1ccc(COc3ccc(Cl)c(Cl)c3)o1)c1c[nH]nc1N2 (stereo not drawn) [Example 19] : does pIC50 equal or exceed 6? 0

Check the entry O=C1CNCC2=C1C(c1ccc(Sc3nc4cc(Cl)c(Cl)cc4[nH]3)o1)c1c[nH]nc1N2 (stereo not drawn) [Example 86] : does pIC50 equal or exceed 6? 1

Check the entry O=C1CC(c2ccccc2)CC2=C1C(c1ccc(Sc3nc4ccccc4[nH]3)o1)c1c[nH]nc1N2 (stereo not drawn) [Example 29] : does pIC50 equal or exceed 6? 1

Check the entry CC(C)C1CC(=O)C2=C(C1)Nc1n[nH]cc1C2c1ccc(Sc2nc3ccccc3[nH]2)o1 (stereo not drawn) [Example 31] : does pIC50 equal or exceed 6? 1

Check the entry O=C1OCC2=C1C(c1ccc(Sc3nc4ccccc4[nH]3)o1)c1c[nH]nc1N2 (stereo not drawn) [Example 42] : does pIC50 equal or exceed 6? 1

Check the entry O=C1CN(CC(O)CN2CCOCC2)CC2=C1C(c1cccc(Oc3ccc(Cl)cc3)c1)c1c[nH]nc1N2 (stereo not drawn) [Example 50] : does pIC50 equal or exceed 6? 1

Check the entry Cc1nc(Sc2ccc(C3C4=C(CC(C)(C)CC4=O)Nc4n[nH]cc43)o2)[nH]c1C (stereo not drawn) [Example 99] : does pIC50 equal or exceed 6? 1

Check the entry CCOC(=O)c1[nH]cc2c1NC1=C(C(=O)CNC1)C2c1ccc(Sc2nc3cc(F)cc(F)c3[nH]2)o1 (stereo not drawn) [Example 143, hydrochloride] : does pIC50 equal or exceed 6? 1

Check the entry CCOC(=O)c1[nH]cc2c1NC1=C(C(=O)CCC1)C2c1ccc(Sc2nc3cc(Cl)cc(C)c3[nH]2)o1 (stereo not drawn) [Example 136] : does pIC50 equal or exceed 6? 1

Check the entry Cc1nc(Sc2ccc(C3C4=C(CCCC4=O)Nc4n[nH]cc43)o2)[nH]c1C (stereo not drawn) [Example 98] : does pIC50 equal or exceed 6? 1

Data origin: patent US8163768B2
